molecular target: Casein kinase I isoform delta (Rattus norvegicus); experiment: Inhibition of rat CK1delta assessed as residual activity at 10 uM relative to control

- smiles structure: "NC(=O)c1ccc(-c2nc(-c3ccc4c(c3)OCCO4)c(-c3ccccn3)[nH]2)cc1"
  system under test: "Casein kinase I isoform delta (Rattus norvegicus)"
  Activity: "4%"
- smiles structure: "CCCC(=O)Nc1n[nH]c2ncc(-c3cccnc3)cc12"
  system under test: "Casein kinase I isoform delta (Rattus norvegicus)"
  Activity: "84%"
- smiles structure: "CC(=O)Nc1nccc(-c2c(-c3ccccc3)noc2C)n1"
  system under test: "Casein kinase I isoform delta (Rattus norvegicus)"
  Activity: "7.2%"
- smiles structure: "CC(=O)Nc1cccc(-c2cnc3[nH]nc(C)c3c2)c1"
  system under test: "Casein kinase I isoform delta (Rattus norvegicus)"
  Activity: "10%"
